# test-conditions: buffer; pH 7.4; 200.0 µM
Assign 1 to entries whose solubility kinetic meets or exceeds 9 µg/mL; assign -1 to the rest.

Inquiry: hey, is solubility kinetic for this one >= 9 µg/mL? "NC(=O)COc1c(-c2ccc(Br)o2)oc2ccccc2c1=O"
Reply text: 1

Inquiry: Check this molecule for solubility kinetic at or above 9 µg/mL: "COc1cc(OC)cc(C(=O)NC2CCCCCCC2)c1"
Reply text: -1

Inquiry: Decide: solubility kinetic of NC(=O)C1CCCN1S(=O)(=O)c1ccc2ccccc2c1 (centres undefined) >= 9 µg/mL?
Reply text: 1

Inquiry: Form field: solubility kinetic at least 9 µg/mL? Entry: "Cc1cc(C(=O)NCC2CCCCC2)ccc1[N+](=O)[O-]"
Reply text: -1

Inquiry: Is it the case that "COc1cccc(-n2c(O)c(C=NCCN3CCNCC3)c(=O)[nH]c2=S)c1" has solubility kinetic reaching or exceeding 9 µg/mL?
Reply text: 1

Inquiry: Reported solubility kinetic reaches at least 9 µg/mL for "CCc1ccc(OCCOC(=O)Nc2ccccc2)cc1" ?
Reply text: -1

Inquiry: Please tell me: is the molecule Cc1csc(SCC(=O)NC(C)c2ccc(F)cc2)n1 (centres undefined) at or over 9 µg/mL in terms of solubility kinetic?
Reply text: 1

Inquiry: Decide: solubility kinetic of CC(C(=O)OCC(=O)N1CCCCC1)N1C(=O)c2ccccc2C1=O (centres undefined) >= 9 µg/mL?
Reply text: 1

Inquiry: Given "Cc1cnc(NC(=O)CN2CCCCC2)s1.[O-][Cl+3]([O-])([O-])O" , state whether its solubility kinetic is at least 9 µg/mL.
Reply text: 1

Inquiry: Test whether the molecule "Cc1nc(SCc2ccc(O)c([N+](=O)[O-])c2)c([N+](=O)[O-])[nH]1" records solubility kinetic of 9 µg/mL or higher.
Reply text: 1

Inquiry: Does solubility kinetic meet or surpass 9 µg/mL for "COc1ccccc1CN(C)CC(=O)Nc1cccc2ccccc12" ?
Reply text: 1

Inquiry: solubility kinetic >= 9 µg/mL for "CN1CCN(C(=O)c2cc(=O)c3cc(Cl)ccc3o2)CC1" ?
Reply text: 1

Inquiry: Does the molecule "CN(C)c1cccc(C(=O)NCc2ccc3c(c2)OCO3)c1" have recorded solubility kinetic that is 9 µg/mL or more?
Reply text: 1

Inquiry: Entry "CCOC(=O)N1CCN(C(=O)c2ccc3ccccc3c2)CC1" : is its solubility kinetic no less than 9 µg/mL?
Reply text: 1

Inquiry: Tell me whether solubility kinetic is at least 9 µg/mL here: "COc1ccc2cc(CCNC(=O)CCc3ccccc3)c(=O)[nH]c2c1"
Reply text: -1

Inquiry: Is it the case that "CCOc1ccc(NC(=O)COc2ccc(S(=O)(=O)N3CCOCC3)cc2)cc1" has solubility kinetic reaching or exceeding 9 µg/mL?
Reply text: -1

Inquiry: Confirm if solubility kinetic reported for the molecule "O=C(COC(=O)CCc1c[nH]c2ccccc12)NCc1ccc2c(c1)OCO2" is 9 µg/mL or above.
Reply text: 1

Inquiry: Quick check: does "CCOC(=O)c1ccc2c(c1)N(CC)C(=O)c1ccccc1S2" have solubility kinetic greater than or equal to 9 µg/mL?
Reply text: 1

Inquiry: I'd appreciate it if you could say whether "O=C1CC2(CCCC2)CC(=O)N1c1ccccc1" has solubility kinetic at least equal to 9 µg/mL.
Reply text: 1

Inquiry: Check this molecule for solubility kinetic at or above 9 µg/mL: "Oc1ccc(Nc2nc(-c3ccccc3O)nc3ccccc23)cc1"
Reply text: -1

Inquiry: Threshold query (solubility kinetic >= 9 µg/mL) on "COc1ccccc1C(=O)NCCC(=O)Nc1cccc(C)n1"
Reply text: 1

Inquiry: Confirm if solubility kinetic reported for the molecule CC(=O)c1ccc(NC(=O)C(C)Sc2ccccn2)cc1 (centres undefined) is 9 µg/mL or above.
Reply text: 1

Inquiry: State whether the measured solubility kinetic reaches 9 µg/mL, counting equality as reaching it, for "COc1ccc(Nc2nc(NCc3ccco3)nc(N)c2[N+](=O)[O-])cc1"
Reply text: -1

Inquiry: hey, is solubility kinetic for this one >= 9 µg/mL? "O=C(c1ccc(Br)cc1)N(c1ccccn1)C1CCCCC1"
Reply text: 1
